test: DSSTox (CPDBAS) Carcinogenic Potency Database Summary MultiCellCall Results; conditions: animal carcinogenicity bioassays, multi-cell call summary
Activity calls are given as the source filed them.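 Rule for the calls: active = tumour findings in long-term animal cancer tests in more than one sex, species or organ; inactive = no tumour finding and more than one negative test.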
Pick from label 1 (active), label 0 (inactive) when you respond.

Exam item: Kindly provide the recorded test outcome for the following compound: CC/C(=C(\c1ccccc1)c1ccc(OCCN(C)C)cc1)c1ccccc1
Marked response: label 1

Exam item: Kindly provide the recorded test outcome for the following compound: CC1CN(N=O)CC(C)N1C (stereo not given)
Marked response: label 1

Exam item: Kindly provide the recorded test outcome for the following compound: C1CCOC1
Marked response: label 1

Exam item: Kindly provide the recorded test outcome for the following compound: OCN(CO)c1nc(N(CO)CO)nc(N(CO)CO)n1
Marked response: label 1

Exam item: Kindly provide the recorded test outcome for the following compound: Nc1ccc(N=Nc2ccc(N)cc2)cc1
Marked response: label 0

====

assay: DSSTox (CPDBAS) Carcinogenic Potency Database Summary MultiCellCall Results; conditions: animal carcinogenicity bioassays, multi-cell call summary
The source made the active and inactive calls.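 The calls were made as follows: active = tumour findings in long-term animal cancer tests in more than one sex, species or organ; inactive = no tumour finding and more than one negative test.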
Pick from yes (active), no (inactive) when you respond.

Exam item: Kindly provide the recorded test outcome for the following compound: CC1CN(N=O)C(=O)NC1=O (centres undefined)
Marked response: no

Exam item: Kindly provide the recorded test outcome for the following compound: N[C@@H](CS)C(=O)O
Marked response: no

Exam item: Kindly provide the recorded test outcome for the following compound: CCOC(=O)C(O)(c1ccc(Cl)cc1)c1ccc(Cl)cc1
Marked response: yes

Exam item: Kindly provide the recorded test outcome for the following compound: CN1C(=O)CN=C(c2ccccc2)c2cc(Cl)ccc21
Marked response: no

Exam item: Kindly provide the recorded test outcome for the following compound: COc1cc(-c2ccc(N=Nc3c(S(=O)(=O)O)cc4cc(S(=O)(=O)O)cc(N)c4c3O)c(OC)c2)ccc1N=Nc1c(S(=O)(=O)O)cc2cc(S(=O)(=O)O)cc(N)c2c1O
Marked response: yes

Exam item: Kindly provide the recorded test outcome for the following compound: Clc1ccccc1Cl
Marked response: no

Exam item: Kindly provide the recorded test outcome for the following compound: NC(=O)CCCCC(N)=O
Marked response: no

Exam item: Kindly provide the recorded test outcome for the following compound: COC1[C@@H](O[C@@H]2O[C@H](C)[C@@H](O[C@H]3C[C@@](C)(O)[C@H](OC(=O)CC(C)C)[C@H](C)O3)[C@H](N(C)C)[C@H]2O)[C@@H](CC=O)C[C@@H](C)[C@@H](O)/C=C/C=C/C[C@@H](C)OC(=O)C[C@H]1OC(C)=O (some centres undefined)
Marked response: no

Exam item: Kindly provide the recorded test outcome for the following compound: C=C1C[C@@]23CC[C@H]4[C@@](C)(CCC[C@@]4(C)C(=O)O[C@@H]4O[C@H](CO)[C@@H](O)[C@H](O)[C@H]4O)[C@@H]2CC[C@]1(O[C@@H]1O[C@H](CO)[C@@H](O)[C@H](O)[C@H]1O[C@@H]1O[C@H](CO)[C@@H](O)[C@H](O)[C@H]1O)C3
Marked response: no

Exam item: Kindly provide the recorded test outcome for the following compound: C#CC(OC(N)=O)(c1ccccc1)c1ccc(Cl)cc1 (centres undefined)
Marked response: yes

Exam item: Kindly provide the recorded test outcome for the following compound: COc1cc(CNC(=O)CCCC/C=C/C(C)C)ccc1O
Marked response: yes

Exam item: Kindly provide the recorded test outcome for the following compound: CCOC(=O)N(C)N=O
Marked response: yes

Exam item: Kindly provide the recorded test outcome for the following compound: CCOC(=O)CC(SP(=O)(OC)OC)C(=O)OCC (centres undefined)
Marked response: no

Exam item: Kindly provide the recorded test outcome for the following compound: COC(=O)NN
Marked response: no

Data credit: PubChem BioAssay AID1205
